Values were extracted from paper PMC9482650.

# system_under_test: Inadl_5, Q8NI35
# Sequence (Q8NI35 673-780): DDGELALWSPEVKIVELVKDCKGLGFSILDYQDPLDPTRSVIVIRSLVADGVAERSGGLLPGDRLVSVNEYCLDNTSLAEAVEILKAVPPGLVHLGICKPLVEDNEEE
# assay_summary: holdup assay
# Design: key: below the threshold = too weak to quantify, mostly under pKd 3.1 to 4
# condition_parameters: plain residues with an end cap or a label only (N-terminal biotin on a linker: ado-ado)
measured_property: pKd

>>> df
                                     binder  measured_property       recorded_value
0             TSQESEDTYL [TBC1D10A, Q9BXI6]                pKd  below the threshold
1               PLSPEQPTKL [TRIM50, Q86XT4]                pKd  below the threshold
2     LPAHHNATRL [SLC34A1, Q06495;Q06495-1]                pKd  below the threshold
3  VYPNAKVELV [PDLIM4_iso2, P50479;P50479-1]                pKd  below the threshold
4                EVEEFPETSV [TRPV3, Q8NET8]                pKd                 3.56
5              PRISRSQSEL [CCDC134, Q9H6E4]                pKd  below the threshold
